# measurement_notes: Differential scanning calorimetry (DSC) of organogels in safflower oil
# Assay type: physicochemical
# assay_context: organogelator 5% (w/w) in safflower oil, area of endothermic peak
Lab note: anything with H (enthalpy of the gel-solution transition) below 9 kcal/mol is marked Criterion met; values at 9 kcal/mol or higher are marked Criterion not met.

Exercise: Decide: H (enthalpy of the gel-solution transition) of CCCCCCCCCCCCCCCCCC(=O)N[C@@H](Cc1c[nH]c2ccccc12)C(=O)OC strictly below 9 kcal/mol?
Key: Criterion met

Exercise: Hi there! Is H (enthalpy of the gel-solution transition) for CCCCCCCCCCCCCCCCCC(=O)N[C@@H](Cc1ccc(O)cc1)C(=O)O below 9 kcal/mol, do you know?
Key: Criterion met

Exercise: Regarding CCCCCCCCCCCCCCCCCC(=O)N[C@@H](Cc1c[nH]c2ccccc12)C(=O)O , kindly confirm whether its H (enthalpy of the gel-solution transition) is beneath 9 kcal/mol.
Key: Criterion met

Exercise: I'd appreciate it if you could check whether CCCCCCCCCCCCCCCCCC(=O)N[C@@H](Cc1ccc(O)cc1)C(=O)OC has H (enthalpy of the gel-solution transition) smaller than 9 kcal/mol.
Key: Criterion not met

Exercise: # check: H (enthalpy of the gel-solution transition) < 9 kcal/mol for CCCCCCCCCCCCCCCCCCCCCC(=O)N[C@@H](Cc1ccccc1)C(=O)OC
Key: Criterion not met

Exercise: Given the entry CCCCCCCCCCCCCCCCCC(=O)NC(C)C(=O)OC (centres unmarked) , would its reported H (enthalpy of the gel-solution transition) be below 9 kcal/mol?
Key: Criterion not met

Exercise: Find out if reported H (enthalpy of the gel-solution transition) for CCCCCCCCCCCCCCCCCCCCCC(=O)N[C@@H](Cc1ccc(O)cc1)C(=O)OC is less than 9 kcal/mol
Key: Criterion not met
